Please respond with reported inhibition at 10 µM for every item in the list.
molecular target: human PDE4B1 (Homo sapiens, UniProt Q07343); construct: host or cells: Sf9 cells; test: TR-FRET assay using the LANCE Ultra cAMP kit to determine the activity of hPDE4B1; type: biochemical; conditions: test substrate concentration of 10 μM, read-out: Inhibition of PDE4B, Inhibition in %
Sequence (Q07343 whole entry): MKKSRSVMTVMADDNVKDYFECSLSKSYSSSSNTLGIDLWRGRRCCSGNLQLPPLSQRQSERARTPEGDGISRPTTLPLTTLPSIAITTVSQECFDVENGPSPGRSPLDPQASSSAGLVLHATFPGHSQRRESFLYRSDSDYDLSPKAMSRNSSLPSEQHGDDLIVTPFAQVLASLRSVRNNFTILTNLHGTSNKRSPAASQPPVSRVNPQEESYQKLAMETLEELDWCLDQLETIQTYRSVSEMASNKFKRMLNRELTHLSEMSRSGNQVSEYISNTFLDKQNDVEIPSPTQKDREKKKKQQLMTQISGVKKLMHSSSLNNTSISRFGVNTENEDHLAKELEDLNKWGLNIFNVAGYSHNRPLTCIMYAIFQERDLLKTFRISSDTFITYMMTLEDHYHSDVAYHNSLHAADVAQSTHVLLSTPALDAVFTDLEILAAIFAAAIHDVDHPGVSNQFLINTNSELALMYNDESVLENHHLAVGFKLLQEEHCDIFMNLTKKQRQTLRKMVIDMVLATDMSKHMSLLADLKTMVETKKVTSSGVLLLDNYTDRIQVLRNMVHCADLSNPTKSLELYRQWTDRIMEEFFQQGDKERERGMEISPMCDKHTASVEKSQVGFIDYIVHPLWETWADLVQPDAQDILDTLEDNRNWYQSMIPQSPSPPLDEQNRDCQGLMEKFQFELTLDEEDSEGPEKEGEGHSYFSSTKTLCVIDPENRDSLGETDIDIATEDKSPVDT
Report the value in % with no unit label.

In plain terms, Cc1nn(-c2ncc(-c3cc(C(C)O)ccc3F)cn2)c2cc(C(=O)N(C)CC(N)=O)ccc12 (centres unmarked) has a documented inhibition at 10 µM of 103

In plain terms, Cc1ccc(F)c(-c2cnc(-n3nc(S(C)(=O)=O)c4ccc(C(=O)N5CCOCC5)cc43)nc2)c1 has a documented inhibition at 10 µM of 102

In plain terms, CC(O)c1nn(-c2ncc(-c3cc(C4CC4)ccn3)cn2)c2cc(C(=O)N3CCOCC3)ccc12 (centres unmarked) has a documented inhibition at 10 µM of 105

In plain terms, CCOc1ccc(F)c(-c2cnc(-n3nc(C4CC4)c4ccc(C(=O)N(C)CC(N)=O)cc43)nc2)c1 has a documented inhibition at 10 µM of 95

In plain terms, Cc1ccc(F)c(-c2cnc(-n3nc([S+](C)[O-])c4ccc(C(=O)N5CCOCC5)cc43)nc2)c1 (centres unmarked) [Compound No. 32] has a documented inhibition at 10 µM of 96

In plain terms, CC(O)c1ccc(F)c(-c2cnc(-n3nc(C4CC4)c4ccc(C(=O)N(C)CC(N)=O)cc43)nc2)c1 (centres unmarked) has a documented inhibition at 10 µM of 101

In plain terms, CCOc1ccc(F)c(-c2cnc(-n3nc(C)c4ccc(C(=O)N(C)CC(N)=O)cc43)nc2)c1 has a documented inhibition at 10 µM of 100

In plain terms, Cc1ccnc(-c2cnc(-n3nc(C(C)O)c4ccc(C(=O)N5CCOCC5)cc43)nc2)c1 (centres unmarked) has a documented inhibition at 10 µM of 105

In plain terms, Cc1nn(-c2ncc(-c3cc(S(C)(=O)=O)ccc3F)cn2)c2cc(C(=O)N(C)CC(N)=O)ccc12 has a documented inhibition at 10 µM of 75

In plain terms, CN(CC(N)=O)C(=O)c1ccc2c(C3CC3)nn(-c3ncc(-c4cc([S+](C)[O-])ccc4F)cn3)c2c1 (centres unmarked) has a documented inhibition at 10 µM of 120

In plain terms, CCOc1ccc(F)c(-c2cnc(-n3nc(C(C)O)c4ccc(C(=O)N5CCOCC5)cc43)nc2)c1 (centres unmarked) has a documented inhibition at 10 µM of 102

In plain terms, Cc1nn(-c2ncc(-c3cc(C(C)(C)O)ccc3F)cn2)c2cc(C(=O)N(C)CC(N)=O)ccc12 has a documented inhibition at 10 µM of 108

In plain terms, Cc1nn(-c2ncc(-c3cc([S+](C)[O-])ccc3F)cn2)c2cc(C(=O)N(C)CC(N)=O)ccc12 (centres unmarked) has a documented inhibition at 10 µM of 42

In plain terms, CN(CC(N)=O)C(=O)c1ccc2c(C3CC3)nn(-c3ncc(-c4cc(C(C)(C)O)ccc4F)cn3)c2c1 has a documented inhibition at 10 µM of 115
